# Species: Mus musculus
# Protocol details: Compound was tested for its degradation by TAD-phosphodiesterase
# Format: functional
Each entry below lists one item and its recorded hydrolysis relative to TAD value.
Report the figure in % without appending any unit label.

Field: example entries. Status: answers known.
{"Query smiles": "NC(=O)c1csc([C@@H]2O[C@H](COP(=O)(O)OP(=O)(O)CC[C@H]3O[C@@H](n4cnc5c(N)ncnc54)[C@H](O)[C@@H]3O)[C@@H](O)[C@H]2O)n1", "Result": 13}
{"Query smiles": "NC(=O)c1csc([C@@H]2O[C@H](CCP(=O)(O)OP(=O)(O)OC[C@H]3O[C@@H](n4cnc5c(N)ncnc54)[C@H](O)[C@@H]3O)[C@@H](O)[C@H]2O)n1", "Result": 10.4}
{"Query smiles": "NC(=O)c1csc([C@@H]2O[C@H](COP(=O)(O)CP(=O)(O)OC[C@@H]3O[C@H](n4cnc5c(N)ncnc54)[C@@H](O)[C@H]3O)[C@@H](O)[C@H]2O)n1", "Result": 0}

The record that follows has no hydrolysis relative to TAD shown yet.
Request: Param item = `NC(=O)c1csc([C@H]2O[C@@H](COP(=O)(O)OP(=O)(O)OC[C@H]3O[C@@H](n4cnc5c(N)ncnc54)[C@H](O)[C@@H]3O)[C@H](O)[C@@H]2O)n1` ; retrieve measured hydrolysis relative to TAD.
Result: 100

====

# System name: UniProt:P24547
# Sequence (P24547 whole entry): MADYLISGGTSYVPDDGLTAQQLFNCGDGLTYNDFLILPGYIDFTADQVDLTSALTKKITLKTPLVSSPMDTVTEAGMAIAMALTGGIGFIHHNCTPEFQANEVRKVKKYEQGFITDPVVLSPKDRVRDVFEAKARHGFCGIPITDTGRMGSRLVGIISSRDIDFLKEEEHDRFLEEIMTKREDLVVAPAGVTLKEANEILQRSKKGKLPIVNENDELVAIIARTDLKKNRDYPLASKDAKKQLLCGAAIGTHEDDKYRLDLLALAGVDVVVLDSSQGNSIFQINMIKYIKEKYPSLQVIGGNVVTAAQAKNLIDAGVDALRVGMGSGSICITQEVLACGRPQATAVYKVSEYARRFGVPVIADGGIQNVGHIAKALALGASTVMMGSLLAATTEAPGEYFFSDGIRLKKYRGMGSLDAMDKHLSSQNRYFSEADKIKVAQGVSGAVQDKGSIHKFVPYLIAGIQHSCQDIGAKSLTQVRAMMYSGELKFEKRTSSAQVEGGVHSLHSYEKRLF
Each entry below lists one item and its recorded Ki value.
Report the figure in nM without appending any unit label.

Field: example entries. Status: answers known.
{"Query smiles": "NC(=O)c1csc([C@@H]2O[C@H](COP(=O)(O)CP(=O)(O)OC[C@@H]3O[C@H](n4cnc5c(N)ncnc54)[C@@H](O)[C@H]3O)[C@@H](O)[C@H]2O)n1", "Unit of measurement": "nM", "Ki": 230}
{"Query smiles": "NC(=O)c1csc([C@@H]2O[C@H](CCP(=O)(O)OP(=O)(O)OC[C@H]3O[C@@H](n4cnc5c(N)ncnc54)[C@H](O)[C@@H]3O)[C@@H](O)[C@H]2O)n1", "Unit of measurement": "nM", "Ki": 1970}

The record that follows has no Ki shown yet.
Request: Param item = `NC(=O)c1csc([C@H]2O[C@@H](COP(=O)(O)OP(=O)(O)OC[C@H]3O[C@@H](n4cnc5c(N)ncnc54)[C@H](O)[C@@H]3O)[C@H](O)[C@@H]2O)n1` ; retrieve measured Ki.
Result: 240

====

# Test system: snake
# Protocol details: Compound was tested for its degradation by venom phosphodiesterase
# Format: functional
Test readout: hydrolysis relative to TAD (%)
Report the figure in % without appending any unit label.

{"Query smiles": "NC(=O)c1csc([C@@H]2O[C@H](CCP(=O)(O)OP(=O)(O)OC[C@H]3O[C@@H](n4cnc5c(N)ncnc54)[C@H](O)[C@@H]3O)[C@@H](O)[C@H]2O)n1", "Unit of measurement": "%", "hydrolysis relative to TAD": 27.2}
{"Query smiles": "NC(=O)c1csc([C@@H]2O[C@H](COP(=O)(O)OP(=O)(O)CC[C@H]3O[C@@H](n4cnc5c(N)ncnc54)[C@H](O)[C@@H]3O)[C@@H](O)[C@H]2O)n1", "Unit of measurement": "%", "hydrolysis relative to TAD": 37.6}
{"Query smiles": "NC(=O)c1csc([C@H]2O[C@@H](COP(=O)(O)OP(=O)(O)OC[C@H]3O[C@@H](n4cnc5c(N)ncnc54)[C@H](O)[C@@H]3O)[C@H](O)[C@@H]2O)n1", "Unit of measurement": "%", "hydrolysis relative to TAD": 100}

Request: Param item = `NC(=O)c1csc([C@@H]2O[C@H](COP(=O)(O)CP(=O)(O)OC[C@@H]3O[C@H](n4cnc5c(N)ncnc54)[C@@H](O)[C@H]3O)[C@@H](O)[C@H]2O)n1` ; retrieve measured hydrolysis relative to TAD.
Result: 0
